System: HEK293 cells overexpressing APOL1 G2
test-method-notes: APOL1 G2 HEK293 cell rescue assay (reversal of cell death caused by overexpression of APOL1)
Type: cell-based
condition-notes: Homo sapiens, HEK293, HEK293 overexpressing APOL1 G2; geometric mean of at least 2 assay runs; † = single assay run
pEC50: −log10 of the molar value.

| compound | pEC50 |
| --- | --- |
| O=C1Nc2ccc(Cl)cc2C12CCN(CCOc1cnc(C3(O)COC3)nc1)CC2 | 6.89 |
| O=C1Nc2ccc(Cl)cc2C12CCN(CCOc1ccc3[nH]ncc3c1)CC2 | 6.99 |
| Cc1n[nH]cc1-c1ccc(OCCN2CCC3(CC2)C(=O)Nc2ccc(Cl)cc23)cc1 | 7.15 |
| CS(=O)(=O)C1(c2ccc(OCCN3CCC4(CC3)C(=O)Nc3ccc(Cl)cc34)cc2)CC1 | 7.50 |
| N#Cc1ccc2c(c1)C1(CCN(CCOc3ccc4c(c3)CNC4=O)CC1)C(=O)N2 | 6.10 |
| Cn1ncc2cc(OCCN3CCC4(CC3)C(=O)Nc3ccc(Cl)cc34)ccc21 | 6.83 |
| CC1(O)CN(c2ncc(OCCN3CCC4(CC3)C(=O)Nc3ccc(C(F)F)cc34)cn2)C1 | 7.06 |
| CNC(=O)N1Cc2ccc(OCCN3CCC4(CC3)C(=O)Nc3ccc(Cl)cc34)cc2C1 | 6.57 |
| CS(=O)(=O)c1ccc(OCCN2CCC3(CC2)C(=O)Nc2ccc(Cl)cc23)cc1C(F)CF (single isomer, unassigned) [Compound 218] | 7.59 |
| COCCN1C(=O)C2(CCN(CCOc3ccc(S(C)(=O)=O)cc3)CC2)c2ccccc21 | 5.90 |
| CC(C)(O)c1ncc(OCCN2CCC3(CC2)C(=O)Nc2ccc(C#N)cc23)cc1C(F)(F)F | 7.65 |
| CS(=O)(=O)C1(c2ccc(OCCN3CCC4(CC3)C(=O)Nc3ccc(C#N)cc34)cc2)COC1 | 7.01 |
| Cc1cc(OCCN2CCC3(CC2)C(=O)Nc2ccc(Cl)cc23)ccc1C(N)=O | 7.18 |
| NC(=O)c1ncc(OCCN2CCC3(CC2)C(=O)Nc2ccc(Cl)cc23)cn1 | 6.35 |
| O=C(c1ccc(OCCN2CCC3(CC2)C(=O)Nc2ccc(Cl)cc23)cc1F)N1CCS(=O)(=O)CC1 | 7.41 |
| CC(C)[C@]1(O)C[C@@H](N2C(=O)CCc3cc(OCCN4CCC5(CC4)C(=O)Nc4ccc(Cl)cc45)cnc32)C1 | 7.62 |

* * *

Tested on: HEK293 clonal cell line overexpressing APOL1 G1
test-method-notes: APOL1 G1 HEK293 cell rescue assay (Example B3)
Format: cell-based
condition-notes: Homo sapiens, HEK293, HEK293 clonal line overexpressing APOL1 G1; geometric mean of at least 2 runs; † = single run; ¥ = concentration at 50% rescue estimated (no sigmoidal curve)
result-type: log10(EC50) (log10 of the value in nM)

| compound | test-system | log10(EC50) |
| --- | --- | --- |
| CC(=O)N1CCc2cc(OCCN3CCC4(CC3)C(=O)N(C)c3ccccc34)ccc2C1 | HEK293 clonal cell line overexpressing APOL1 G1 | 3.33 |
| O=C1CCc2cc(OCCN3CCC4(CC3)C(=O)Nc3ccc(C(F)F)cc34)cnc2N1C1CC(CO)C1 (single isomer, unassigned) [Compound 309] | HEK293 clonal cell line overexpressing APOL1 G1 | 2.13 |
| CCC1(O)CN(c2ncc(OCCN3CCC4(CC3)C(=O)Nc3ccc(Cl)cc34)cn2)C1 | HEK293 clonal cell line overexpressing APOL1 G1 | 2.02 |
| CC1(S(=O)(=O)c2ccc(OCCN3CCC4(CC3)C(=O)Nc3ccc(C#N)cc34)cc2)COC1 | HEK293 clonal cell line overexpressing APOL1 G1 | 2.36 |
| C[C@@H](COc1ccc2c(cnn2C)c1)N1CCC2(CC1)C(=O)Nc1ccc(Cl)cc12 (single isomer, unassigned) | HEK293 clonal cell line overexpressing APOL1 G1 | 2.58 |
| C[C@]1(O)C[C@@H](n2c(=O)ccc3cc(OCCN4CCC5(CC4)C(=O)Nc4ccc(C(F)F)cc45)cnc32)C1 | HEK293 clonal cell line overexpressing APOL1 G1 | 1.61 |
| C[C@]1(O)C[C@@H](n2c(=O)[nH]c3cc(OCCN4CCC5(CC4)C(=O)Nc4ccc(C#N)cc45)cc(C(F)(F)F)c32)C1 | HEK293 clonal cell line overexpressing APOL1 G1 | 1.68 |
| CS(=O)(=O)c1ccc(OCCN2CCC3(CC2)C(=O)Nc2ccccc23)cc1 | HEK293 clonal cell line overexpressing APOL1 G1 | 3.55 |
| CS(=O)(=O)N1CCc2cc(OCCN3CCC4(CC3)C(=O)Nc3ccc(Cl)cc34)ccc2C1 | HEK293 clonal cell line overexpressing APOL1 G1 | 2.32 |
| CC(C)n1ncc2cc(OCCN3CCC4(CC3)C(=O)Nc3ccc(Cl)cc34)ccc21 | HEK293 clonal cell line overexpressing APOL1 G1 | 2.47 |
| CC1(S(=O)(=O)c2ccc(OCCN3CCC4(CC3)C(=O)Nc3ccc(Cl)cc34)cn2)COC1 | HEK293 clonal cell line overexpressing APOL1 G1 | 2.40 |
| O=C1Nc2ccc(Cl)cc2C12CCN(CCOc1ccc3c(c1)CCS3(=O)=O)CC2 | HEK293 clonal cell line overexpressing APOL1 G1 | 2.32 |
| CC(C)N1C(=O)CCc2cc(OCCN3CCC4(CC3)C(=O)Nc3ccc(C#N)cc34)ccc21 | HEK293 clonal cell line overexpressing APOL1 G1 | 2.17 |
| CS(=O)(=O)c1ccc(OCCN2CCC3(CC2)C(=O)Nc2ccc(C#N)cc23)cc1OC(F)F | HEK293 clonal cell line overexpressing APOL1 G1 | 2.50 |
| O=C1Nc2ccccc2C12CCN(CCOc1ccc(S(=O)(=O)C(F)F)cc1)CC2 | HEK293 clonal cell line overexpressing APOL1 G1 | 2.68 |
| CN1C(=O)C2(CCN(CCOc3ccc(C(=O)N4CCS(=O)(=O)CC4)c(C(F)(F)F)c3)CC2)c2cc(C#N)ccc21 | HEK293 clonal cell line overexpressing APOL1 G1 | 2.22 |
| CC(=O)N(C)CCS(=O)(=O)c1ccc(OCCN2CCC3(CC2)C(=O)Nc2ccc(Cl)cc23)cc1 | HEK293 clonal cell line overexpressing APOL1 G1 | 2.58 |

* * *

Test system: HEK293 cells overexpressing APOL1 G2
test-method-notes: APOL1 G2 HEK293 cell rescue assay (reversal of cell death caused by overexpression of APOL1)
Format: cell-based
condition-notes: Homo sapiens, HEK293, HEK293 overexpressing APOL1 G2; geometric mean of at least 2 assay runs; † = single assay run
pEC50: −log10 of the molar value.
result-type: pEC50

| compound | test-system | result-type | recorded-result |
| --- | --- | --- | --- |
| O=C(c1ccc(OCCN2CCC3(CC2)C(=O)N(CCO)c2ccc(Cl)cc23)cc1C(F)(F)F)N1CCS(=O)(=O)CC1 [Compound 271] | HEK293 cells overexpressing APOL1 G2 | pEC50 | 6.82 |
| C[C@]1(O)C[C@@H](n2c(=O)[nH]c3cc(OCCN4CCC5(CC4)C(=O)Nc4ccc(Cl)cc45)cnc32)C1 [Compound 374] | HEK293 cells overexpressing APOL1 G2 | pEC50 | 7.00 |
| CC1(O)CN(c2ncc(OCCN3CCC4(CC3)C(=O)Nc3ccc(C#N)cc34)cc2C(F)(F)F)C1 [Compound 431] | HEK293 cells overexpressing APOL1 G2 | pEC50 | 7.73 |
| CS(=O)(=O)c1ccc(OCCN2CCC3(CC2)C(=O)Nc2ccc(C#N)cc23)cc1C(F)F [Compound 100] | HEK293 cells overexpressing APOL1 G2 | pEC50 | 7.33 |

* * *

Parameter pEC50: see the listing below.
Tested on: HEK293 clonal cell line overexpressing APOL1 G1
test-method-notes: APOL1 G1 HEK293 cell rescue assay (Example B3)
Assay type: cell-based
condition-notes: Homo sapiens, HEK293, HEK293 clonal line overexpressing APOL1 G1; geometric mean of at least 2 runs; † = single run; ¥ = concentration at 50% rescue estimated (no sigmoidal curve)
pEC50: −log10 of the molar value.

| sample-smiles | pEC50 |
| --- | --- |
| CC1(O)CN(c2ncnc3cc(OCCN4CCC5(CC4)C(=O)Nc4ccc(Cl)cc45)cnc23)C1 | 6.62 |
| CNC(=O)c1ccc(OCCN2CCC3(CC2)C(=O)Nc2ccc(Cl)cc23)cc1 | 5.97 |
| CS(=O)(=O)c1c(F)cc(OCCN2CCC3(CC2)C(=O)Nc2ccc(C#N)cc23)cc1F | 6.23 |
| CN1CCc2cc(OCCN3CCC4(CC3)C(=O)Nc3ccc(C#N)cc34)ccc2S1(=O)=O | 6.60 |
